System: NCI-H292 lung cancer cells
measurement-description: FDA drug screening, complete media vs cholesterol-free media with simvastatin (TABLE 2)
Assay type: cell-based, human
recorded-conditions: NCI-H292 cells, cholesterol-free media with simvastatin 0.04 μM; FDA drug library screen (TABLE 2)
Counter-ions that a name gives are not always drawn.
Mark true (1) only for Cholesterol-free media + simvastatin (0.04 μM) values smaller than 1; exact matches and larger values are false (0).

* NC(=NCc1ccccc1)NC(=O)c1nc(Cl)c(N)nc1N [Benzamil (hydrochloride)] | true (1)

Prompt line: Would you kindly verify if Cholesterol-free media + simvastatin (0.04 μM) of O=C(O)c1cc(/N=N/c2ccc(S(=O)(=O)Nc3ccccn3)cc2)ccc1O is strictly less than 1?
Response line: false (0)

Prompt line: Determine whether this compound shows Cholesterol-free media + simvastatin (0.04 μM) lower than 1 (ties excluded): Cc1nccn1CCC(C(N)=O)(c1ccccc1)c1ccccc1
Response line: false (0)

Prompt line: Strictly below 1: is that where Cholesterol-free media + simvastatin (0.04 μM) of CC(O)(P(=O)(O)O)P(=O)(O)O sits?
Response line: true (1)

Prompt line: Quick check: does C=CC(N)CCC(=O)O (centres unmarked) have Cholesterol-free media + simvastatin (0.04 μM) under 1?
Response line: true (1)

Prompt line: Given COc1ccccc1Oc1c(NS(=O)(=O)c2ccc(C(C)(C)C)cc2)nc(-c2ncccn2)nc1OCCO [Bosentan (hydrate)] , is recorded Cholesterol-free media + simvastatin (0.04 μM) strictly lower than 1?
Response line: false (0)

Prompt line: In the record for Nc1ncn([C@@H]2O[C@H](CO)[C@@H](O)[C@H]2O)c(=O)n1 , is Cholesterol-free media + simvastatin (0.04 μM) less than 1?
Response line: true (1)

* * *

// reported Cholesterol-free per item
Tested on: NCI-H292 lung cancer cells
measurement-description: FDA drug screening, complete media vs cholesterol-free media without statin (TABLE 1)
Assay type: cell-based, human
recorded-conditions: NCI-H292 cells, cholesterol-free media without statin, FDA drug library screen
The answer should be a number; do not append a unit.

Here are 3 compounds together with their reported answers.
* Cc1nccn1CC1CCc2c(c3ccccc3n2C)C1=O (stereo not shown) [Ondansetron] | 1.168
* NC(=O)c1cnccn1 [Pyrazinamide] | 0.9745
* CCCCCCc1ccc(O)cc1O [Hexylresorcinol] | 1.034

Consider the record given below.
Record summary for NC(=O)c1cn(Cc2c(F)cccc2F)nn1 [Rufinamide] : reported Cholesterol-free = 0.9822

* * *

System: NCI-H292 lung cancer cells
measurement-description: FDA drug screening, complete media vs cholesterol-free media without statin (TABLE 1)
Format: cell-based, human
recorded-conditions: NCI-H292 cells in complete media
Counter-ions that a name gives are not always drawn.
quantity-name: Complete
Reply with just the number.

Look over these answered cases.
• C[C@H](Cn1cnc2c(N)ncnc21)OCP(=O)(O)O [Tenofovir] = 1.013
• CC(C)(Oc1ccc(C(=O)c2ccc(Cl)cc2)cc1)C(=O)[O-].C[N+](C)(C)CCO [Choline Fenofibrate] = 0.6045
• CCO/N=C(\C(=O)N[C@@H]1C(=O)N2C(C(=O)[O-])=C(Sc3nc(-c4cc[n+](C)cc4)cs3)CS[C@H]12)c1nsc(NP(=O)(O)O)n1 [Ceftaroline fosamil] = 0.8244
• CC(C)(Sc1cc(C(C)(C)C)c(O)c(C(C)(C)C)c1)Sc1cc(C(C)(C)C)c(O)c(C(C)(C)C)c1 [Probucol] = 0.8825
• Cc1cc(N2CCN([C@@H]3CN[C@H](C(=O)N4CCSC4)C3)CC2)n(-c2ccccc2)n1 [Teneligliptin (hydrobromide)] = 0.8858
• CCc1c(Cl)c(O)c(Cl)c(O)c1C(=O)O[C@H]1[C@H](O)[C@H](OC)[C@H](OC/C2=C\C=C\C[C@H](O)/C(C)=C/[C@H](CC)[C@@H](O[C@@H]3OC(C)(C)[C@@H](OC(=O)C(C)C)[C@H](O)[C@@H]3O)/C(C)=C/C(C)=C/C[C@@H]([C@@H](C)O)OC2=O)O[C@@H]1C [Fidaxomicin] = 0.6951

Entry COc1cc(NS(=O)(=O)c2ccc(N)cc2)ncn1 [Sulfamonomethoxine] , NCI-H292 lung cancer cells data, Complete value: 0.8971

Lab entry: NCI-H292 lung cancer cells assay, compound O=S(=O)(O)c1cc(O)ccc1O [Ethamsylate] , Complete = 1.118

# value of Complete, NCI-H292 lung cancer cells, item Cc1nc2c([nH]1)-c1ccccc1N(C(=O)c1ccc(NC(=O)c3ccccc3-c3ccccc3)cc1)CC2 [Conivaptan (hydrochloride)] = 0.989

Lab note: compound CN(C)C(=N)N=C(N)N [Metformin] tested on NCI-H292 lung cancer cells; recorded Complete was 0.9656

Origin of measurements: patent US20250144067A1
